- assayProcedure: Kinetic solubility in bio-relevant media (FaSSIF, FeSSIF), HPLC quantification
- Type: physicochemical
- conditionInfo: FeSSIF (fed state simulated intestinal fluid), thermodynamic from solid; FeSSIF, RT, time point 1 h
endpoint: solubility at 1 h (µg/mL)
State the answer as a number, implicitly in µg/mL.

### Prompt Give the measured solubility at 1 h of O=C(O)CSc1nnc(Br)n1-c1ccc(C2CC2)c2ccccc12 [lesinurad freeacid] .
### Response 1510

----------
- assayProcedure: Kinetic solubility in bio-relevant media (FaSSIF, FeSSIF), HPLC quantification
- Type: physicochemical
- conditionInfo: FaSSIF (fasted state simulated intestinal fluid), thermodynamic from solid; FaSSIF, RT, time point 24 h
- Method: 2. Add 3 mL of bio-relevant medium into each vial. 3. Cap the vials and keep all the suspension samples stirring at RT (room temperature) using a rolling incubator at a rate of 25 r/min. 4. Sample at 1 h, 4 h and 24 h respectively. […] 5. Centrifuge filtration tubes at a rate of 8500 rpm for 3 minutes at RT, collect 0.2 mL of supernatant for HPLC quantification determination and collect the rest of solution for pH measurement, and separate the solid for XRPD characterization.
endpoint: solubility at 24 h (µg/mL)
State the answer as a number, implicitly in µg/mL.

### Prompt Give the measured solubility at 24 h of O=C(O)CSc1nnc(Br)n1-c1ccc(C2CC2)c2ccccc12 [lesinurad freeacid] .
### Response 3000

----------
- assayProcedure: Kinetic solubility in bio-relevant media (FaSSIF, FeSSIF), HPLC quantification
- Type: physicochemical
- conditionInfo: FeSSIF (fed state simulated intestinal fluid), thermodynamic from solid; FeSSIF, RT, time point 4 h
endpoint: solubility at 4 h
Put down the number, then write its unit next to it.

### Prompt Give the measured solubility at 4 h of O=C(O)CSc1nnc(Br)n1-c1ccc(C2CC2)c2ccccc12 [lesinurad freeacid] .
### Response 2140 µg/mL
